Attribution: the supplement of paper PMC7125110

B1: glmS ribozyme (parent)
chain: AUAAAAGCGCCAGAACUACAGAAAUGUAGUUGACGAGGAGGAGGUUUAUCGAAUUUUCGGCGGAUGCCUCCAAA

Variants of: B1
TEST: self-cleavage kobs at 160 uM GlcN6P; higher = faster cleavage; RNA array
STUDY_CONDITIONS: with glucosamine-6-phosphate
Variants at the floor of the assay were thinned out.
For each record, write down the corresponding self-cleavage kobs at 160 uM GlcN6P.
Numbers only, in s⁻¹.

>>> print(df.to_string())
                              sequence_data  test_value
0  AUAAAGGCGCCAGAACUACAGAAAUGUAGUUGACGAGGAGGAGGUUUAUGGAAUUUUCGGCGGAUGCCUCCAAA [A6G C50G]    9.76e-05
1  AUAAAAGCGCCAGAACUACAGAAAUGUAGUUGACGAGGAUGAGGUUUAUCGAGUUUUCGGCGGAUGCCUCCAAA [G40U A53G]    0.000703
2  AUAAAAGCGCCAGAACUAAAGAAAUGUAGUUGACGAGGAGGAGGUUUAUCGAAUUUUCGGCGGAUGGCUCCAAA [C19A C67G]    0.000171
3  AUAAAAGCGCCAGAACUACAGAAAUGUAGUUGACGAGGGGGAGGUAUAUCGAAUUUUCGGCGGAUGCCUCCAAA [A39G U46A]    0.000377
4  AUAAAAGCGCCAGAACUACAGAAAUGUAGUUGACGAGGAGGAGGUUUAUCGAAUGUUCGGCGGAUGCCUACAAA [U55G C70A]    5.52e-05
5  AUAAAAGCGCCCGAACUACAGAAAUGUAGUUGACGAGGAGGAGGUUUAUCGAAUUUUCGGCGGAUUCCUCCAAA [A12C G66U]    9.73e-05
6  AUAAAAGCGCCUGAACUACAGAAAUGUAGUUGACGAGGACGAGGUUUAUCGAAUUUUCGGCGGAUGCCUCCAAA [A12U G40C]    0.000567
7  AUAAAAGCGCCAGAACUACAGAAAUGUAGUUGACGAGGAGGAGGUUUAUCGAUCUUUCGGCGGAUGCCUCCAAA [A53U U54C]      0.0012
8  AUAAAAGCGCCAGUACUACAGAAAUGUAGAUGACGAGGAGGAGGUUUAUCGAAUUUUCGGCGGAUGCCUCCAAA [A14U U30A]    8.35e-05
9  AUAAAAGCGGCAGAACUACAGAAAUGUAGUUGACGAGGAGGAGGUUGAUCGAAUUUUCGCCGGAUGCCUCCAAA [C10G U47G G60C]    0.000156

For each listed entry, give its self-cleavage kobs at 160 uM GlcN6P.
1. AUAAAAGCGCCAGAACUACAGAAAUGUAGUUGACGAGGAGUAGGUUUAUCGAAUAUUCGGCGGAUGCCUCCAAA [G41U U55A]
2. AUAAAAGCGCCAGGACUACAGAAAUGUAGUUGACGAGGAGGAGGUUUAUCGAAUUUUCGGCGGAUUCCUCCAAA [A14G G66U]
3. AUAAAAGCGCCCGAACUACAGAAAUGUAGUUGACGAGGAGGAGGUUUAUGGAAUUUUCGGCGGAUCCCUCCAAA [A12C C50G G66C]
4. AUAAAAGCGCCAGAACUACAGAAAUGUAGUUGACGAGGAGGAGGUUAAUCGAAUUUUCGGCGGAUGCCACCAAA [U47A U69A]

result:
1: 5.55e-05; 2: 0.00039; 3: 0.00011; 4: 0.00011
